# Test system: RXF 393
# TEST_DETAILS: NCI tumour cell line growth inhibition, 48 h
Calls of active or inactive are those of the source. No stated cut-off is given here; in the data, active = GI50 up to about 1.1 µM and inactive = higher.
MEASURED_PROPERTY: GI50

query: Value lookup for GI50; key = CC(C)(C)OC(=O)NC1CCCC1C(O)(C1=CCCC1)C1=CCCC1 (stereo unspecified)
result: > 100 µM (inactive)

query: Value lookup for GI50; key = `C[C@@H](c1ccccc1)N1CO[C@@]2(C#Cc3ccc4c(c3)OCO4)CCC[C@@H]12`
result: 11.6 µM (inactive)

query: Value lookup for GI50; key = `O=[N+]([O-])c1cccc(/C=N\NS(=O)(=O)c2ccc(Cl)cc2)c1O`
result: 37.8 µM (inactive)

----------
# System: NCI-H522
# TEST_DETAILS: NCI tumour cell line growth inhibition, 48 h
Calls of active or inactive are those of the source. No stated cut-off is given here; in the data, active = GI50 up to about 1.1 µM and inactive = higher.
Could you please pick one outcome from this set? active, inactive

Solved cases (3 shown):
[[record]]
molecule = "O=C1C=CC(=O)c2c(O)c(N(CCCl)CCCl)c(Cl)c(O)c21"
target_of_assay = "NCI-H522"
cat = "inactive"

[[record]]
molecule = "CC(C)=CC(=O)OC1C2C(C)C(=O)OC2C(O)C(C)C2C=CC(=O)C21C (stereo not given)"
target_of_assay = "NCI-H522"
cat = "active"

[[record]]
molecule = "COc1cc(/C=C2/SC(c3ccccc3)N(c3cccc(Cl)c3)C2=O)cc(OC)c1OC (stereo not given)"
target_of_assay = "NCI-H522"
cat = "inactive"


query: # lookup: test call for `N#Cc1ccc(OCc2nc3cc(C(F)(F)F)ccc3nc2-c2ccccc2)cc1`
result: inactive

query: # lookup: test call for COC1=CC2(C=CC1=O)CCNC1=C2C(=O)c2nc[nH]c2C1=O (stereo not given)
result: inactive

query: # lookup: test call for `Cc1ccc(C(=O)c2[nH]c(Nc3cc(C)ccn3)c(C(=S)Nc3ccccc3)c2N)cc1`
result: inactive

query: # lookup: test call for `Cc1ccc(C(=O)CC2=Nc3nnc(CCCCCCCc4nnc5n4C(=O)C(CC(=O)c4ccc(C)cc4)=N5)n3C2=O)cc1`
result: inactive

query: # lookup: test call for `O=C1CCCC(O)=C1SC1=C(O)CCCC1=O`
result: inactive

query: # lookup: test call for CC1(c2ccc(Cl)cc2)C2C(=O)NC(=O)C1C(=O)NC2=O (stereo not given)
result: inactive

query: # lookup: test call for COC(=O)c1ccc(C)cc1C1CN=NC12Cc1c(C)cccc1C2=O (stereo not given)
result: inactive

----------
# GI50 per record follows
# System: SF-295
# TEST_DETAILS: NCI tumour cell line growth inhibition, 48 h
The source made the active and inactive calls. Rule as the data show it: active = GI50 up to about 1.1 µM and inactive = higher.

[[record]]
compound = "CCP(=O)(OC)C1=CCN(C(=O)OCC[Si](C)(C)C)CC1 (stereo not given)"
target_of_assay = "SF-295"
endpoint_value = "> 100 µM (inactive)"

[[record]]
compound = "COc1ccc(C2=Nn3c(nc4sc(C)c(C)c4c3=O)SC2)cc1"
target_of_assay = "SF-295"
endpoint_value = "> 100 µM (inactive)"

[[record]]
compound = "CCOC(=O)NC(C(F)(F)F)(C(F)(F)F)P(=O)(OC(C)C)OC(C)C"
target_of_assay = "SF-295"
endpoint_value = "> 100 µM (inactive)"

[[record]]
compound = "Cc1ccc(S(=O)(=O)N(CC(O)COc2ccccc2)c2ccccc2Cl)cc1 (stereo not given)"
target_of_assay = "SF-295"
endpoint_value = "24.3 µM (inactive)"


query: Value lookup for GI50; key = `CN(C)c1ccc(/C=C2\N=C(c3ccccc3)N(c3nc4ccc(Sc5ccccc5)cc4[nH]3)C2=O)cc1`
result: 23.6 µM (inactive)

query: Value lookup for GI50; key = `C=C(Cl)COC(=O)Nc1cccc(Cl)c1`
result: 25.7 µM (inactive)

query: Value lookup for GI50; key = `O=[N+]([O-])c1cccc(/C=N\NS(=O)(=O)c2ccc(Cl)cc2)c1O`
result: > 100 µM (inactive)

query: Value lookup for GI50; key = `CN(CCCNCc1ccccn1)Cc1ccccc1O`
result: 20.4 µM (inactive)

query: Value lookup for GI50; key = CC(C)(CC1(C)NC(=O)NC1=O)OCc1ccccc1 (stereo not given)
result: > 100 µM (inactive)

query: Value lookup for GI50; key = CCOC(OC1=C(C#N)CCCC1)C(CC)[Se]c1ccccc1[N+](=O)[O-] (stereo not given)
result: 22.2 µM (inactive)

----------
# Tested on: MDA-MB-435
# TEST_DETAILS: NCI tumour cell line growth inhibition, 48 h
Active and inactive are the calls of the source. Cut-off read from the data, not from the text of the source: active = GI50 up to about 1.1 µM and inactive = higher.
Could you please pick one outcome from this set? true (1) for active, false (0) for inactive

Solved cases (5 shown):
[[record]]
compound = "O=C(N/N=C(/c1ccccc1)C(F)(F)F)c1ccncc1"
cat = "false (0)"

[[record]]
compound = "Cc1cccc(C2NC(=O)c3ccccc3N2)c1 (stereo unspecified)"
cat = "true (1)"

[[record]]
compound = "Cc1ccc(C)n1-c1ccccc1C1SCCCS1"
cat = "false (0)"

[[record]]
compound = "O=C(OCc1ccccc1CN1CCOCC1)c1ccc(Br)cc1"
cat = "false (0)"

[[record]]
compound = "CCC1(O)CC(CCN(Cc2ccccc2)C(=O)OCc2ccccc2)C(OCc2ccccc2)C1O (stereo unspecified)"
cat = "false (0)"


query: # lookup: test call for CCN(CC)c1ccc(C2SCC(=O)N2c2ccc(NC(=O)c3ccc(N4C(=O)CSC4c4ccc(N(CC)CC)cc4)cc3)cc2)cc1 (stereo unspecified)
result: false (0)

query: # lookup: test call for `CCn1cc(C(=O)O)c(=O)c2cc(F)c(N3CCN(CN4C(=O)/C(=N\c5ncc(Cc6cc(OC)c(OC)c(OC)c6)c(N)n5)c5cc(Cl)ccc54)CC3)cc21`
result: false (0)

query: # lookup: test call for CCCCOC(=O)C(=O)C(CC(CC)C(=O)c1ccccc1)C(=O)C=C(C)C (stereo unspecified)
result: false (0)

----------
# Test system: MOLT-4
# TEST_DETAILS: NCI tumour cell line growth inhibition, 48 h
The source made the active and inactive calls. Rule as the data show it: active = GI50 up to about 1.1 µM and inactive = higher.
# GI50 per record follows

[[record]]
compound = "COc1ccc(C2Oc3cc(OC)c(O)cc3[C@@H]2C)cc1 (some centres undefined)"
measured_property = "GI50"
endpoint_value = "14.9 µM (inactive)"


query: Value lookup for GI50; key = `c1ccc(C2=Nn3c(CCCCCCCCc4nnc5n4N=C(c4ccccc4)CS5)nnc3SC2)cc1`
result: 32.4 µM (inactive)

query: Value lookup for GI50; key = `Cc1cc(Cl)ccc1NC(=O)C(=O)Cc1nc2ccc(C(=O)c3ccccc3)cc2nc1O`
result: 46.8 µM (inactive)

query: Value lookup for GI50; key = `COc1ccc(-c2cc(-c3cc4cc(Br)ccc4nc3Cl)c(C#N)c(N)n2)cc1`
result: 9.66 µM (inactive)

----------
# GI50 per record follows
# Test system: SF-295
# TEST_DETAILS: NCI tumour cell line growth inhibition, 48 h
Activity calls are given as the source filed them. Cut-off read from the data, not from the text of the source: active = GI50 up to about 1.1 µM and inactive = higher.

[[record]]
compound = "CCNc1nc2ccccc2nc1NCC"
measured_property = "GI50"
endpoint_value = "> 100 µM (inactive)"

[[record]]
compound = "CC(C)=CC(=O)OC1C2C(C)C(=O)OC2C(O)C(C)C2C=CC(=O)C21C (stereo unspecified)"
measured_property = "GI50"
endpoint_value = "6.14 µM (inactive)"

[[record]]
compound = "C/C(CC(=O)Nc1cccc([N+](=O)[O-])c1)=N\\NC(=O)C[n+]1ccccc1"
measured_property = "GI50"
endpoint_value = "> 100 µM (inactive)"

[[record]]
compound = "Cn1c(=O)c2c(no[n+]2[O-])n(C)c1=O"
measured_property = "GI50"
endpoint_value = "52.4 µM (inactive)"

[[record]]
compound = "CN(C(=O)c1ccc(Cl)s1)C(=S)N(C)C(=O)c1ccc(Cl)s1"
measured_property = "GI50"
endpoint_value = "> 10 µM (inactive)"


query: Value lookup for GI50; key = CN1C(c2ccccc2)CC(C)(O)CC1c1ccccc1 (stereo unspecified)
result: > 100 µM (inactive)

query: Value lookup for GI50; key = CC(C(=O)O)c1ccc(-n2nnc3c(=O)[nH][nH]c(=O)c32)cc1 (stereo unspecified)
result: > 100 µM (inactive)

query: Value lookup for GI50; key = C/C=C/CC(C(=O)OCC)(N(C)C(=O)OC(C)(C)C)S(=O)(=O)c1ccc(C)cc1 (stereo unspecified)
result: 63.7 µM (inactive)

query: Value lookup for GI50; key = c1ccc(C2C3=C(CCCC3)Nc3nc4cc5ccccc5cc4n32)cc1 (stereo unspecified)
result: > 100 µM (inactive)

query: Value lookup for GI50; key = `c1ccc(/C(=N\Nc2nc3ccccc3[nH]2)c2ccccn2)cc1`
result: 1.69 µM (inactive)

query: Value lookup for GI50; key = `COc1ccc(/C(Cl)=C(\CN(C)C)c2ccc(OC)c(OC)c2)cc1OC.[B]`
result: 12.7 µM (inactive)

----------
# GI50 per record follows
# System: 786-0
# TEST_DETAILS: NCI tumour cell line growth inhibition, 48 h
Active and inactive are the calls of the source. Rule as the data show it: active = GI50 up to about 1.1 µM and inactive = higher.

// solved cases for GI50 follow
[[record]]
compound = "Clc1cc(-c2ccccc2)nc(Nc2nc3ccccc3[nH]2)n1"
endpoint_value = "16.5 µM (inactive)"

[[record]]
compound = "CC1OC2/C=C\\CC(O)C(C)(C)C3CCC(C)C4(O3)O[B-]35OC(C(=O)OC1C2)C1(OC(CCC1C)C(C)(C)C(O)C/C=C\\C1CC(OC(=O)C4O3)C(C)O1)O5 (stereo not given)"
endpoint_value = "2.83 µM (inactive)"

[[record]]
compound = "CCCCCC1=C2C(c3ccc(OC)cc3)=C(N)C(c3ccc(OC)cc3)=C3NC(=O)C(C=C1)C32 (stereo not given)"
endpoint_value = "25 µM (inactive)"

[[record]]
compound = "COc1ccccc1C1c2cc3c(cc2OC2(OC)COC(=O)C12)OCO3 (stereo not given)"
endpoint_value = "19.1 µM (inactive)"


Now examine the next entry.
query: Value lookup for GI50; key = CCCCNC(=S)OCCC(C)CCCC(C)C (stereo not given)
result: > 100 µM (inactive)
